measured_target: T1, 包含有His标签的重组人源TSLP蛋白(rhTSLP-His) (human)
T1 construct: also called rhTSLP-His重组蛋白; rhTSLP-His蛋白
measurement_description: cell ELISA: antibody blocks binding of 100 ng rhTSLP-His to hTSLPR/hIL-7Rα-293T/17 cells
endpoint_label: IC50 (µg/mL)
Provide only the numeric value, understood in µg/mL.

## Task In one line, give reported IC50 of the entry Tezepelumab(安进和阿斯利康合作开发抗体) (antibody, V domains shown) VH: QMQLVESGGGVVQPGRSLRLSCAASGFTFRTYGMHWVRQAPGKGLEWVAVIWYDGSNKHYADSVKGRFTITRDNSKNTLNLQMNSLRAEDTAVYYCARAPQWELVHEAFDIWGQGTMVTVSS VL: SYVLTQPPSVSVAPGQTARITCGGNNLGSKSVHWYQQKPGQAPVLVVYDDSDRPSWIPERFSGSNSGNTATLTISRGEAGDEADYYCQVWDSSSDHVVFGGGTKLTVLG .
## Result 6.22

## Task In one line, give reported IC50 of the entry 鼠源抗TSLP单克隆抗体10D9-M-432 (antibody, V domains shown, Mouse hybridoma monoclonal antibody) VH: VNCKESGPQLVRPGASVKISCKASAYSFTTYWMHWVKQRPGQGLEWIGLIDPSDSETTLNQKFKDKATLTVDKSSSTAYMQLTSPTSEDSAVYYCARSLDGYFDYWGQGTTVTVSS VL: DIDLTQSPASLSASVGETVTITCRAGENIYSYLAWYQQKQGKSPQLLVYNAKILAESVPSRFSGSGSGTQFSLKINSLQPEDFGIYSCQHHYDTPWTFGGGTKLE .
## Result 12

## Task In one line, give reported IC50 of the entry 鼠源抗TSLP单克隆抗体9F8-1-25 (antibody, V domains shown, Mouse hybridoma monoclonal antibody) VH: VQLQQSGPQLVRPGASVKISCKASGYSFTTYWMHWVKQRPGQGLEWIGIIDPSDSETTLNQKFKDKATLTVDKSSSTAYIQLSSPTSEDSAVYYCTRSLDGYFDYWGQGTTVTV VL: DIDLTQSPASLSASVGETVTITCRAGENIYSYLAWYQQKQGKSPQLLVYNAKILAESVPSRFSGSGSGTQFSLKINSLQPEDFGIYSCQHHYDTPWTFGGGTKLE .
## Result 10.7

Data origin: patent CN115028722A
